# test_description: Hemolytic activity in rabbit erythrocytes assessed as concentration required to cause 50% hemolysis
# Format: ADME, cell-based, Oryctolagus cuniculus, Erythrocyte
measure: HC50

[[record]]
structure_string = "CCOC(=O)Cc1cn(C/C=C(\\C)CCC=C(C)C)c2ccccc12"
reported_result = "> 200 µg/mL"

[[record]]
structure_string = "CC(C)=CCn1cc(CC(=O)N[C@@H](CCCNC(=N)N)C(N)=O)c2ccccc21"
reported_result = "> 200 µg/mL"

[[record]]
structure_string = "CC(C)=CCn1cc(CC(=O)NCCCNC(=N)N)c2ccccc21"
reported_result = "> 200 µg/mL"

